- System: PPARg:RXRa 90nM:30nM, anti-RXR (NR concentration 90 nM, RXRa partner concentration 30 nM)
- assayOverview: PBM binding z-score (relative to random genomic background probes); higher = stronger binding; sequences stand for … in GC…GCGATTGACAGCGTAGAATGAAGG
Each entry below lists one item and its recorded PBM binding z-score value.
// keep it numeric: no unit symbol after the value

Examples with answers:
CCTTACGGGTCACGAGGCTATAGCACGACGAGCG: 4.4
GCGCCTGGGGCATCAGCAGGTTACCATAACTTAA: -0.927
CCTTGCAGGCCAGGGTCACTCAAGCATTTCGCTT: 1.02
CGAAGTAGGTCAGAACAGGACAGTGAAGGATGAT: 4.14
CGATCTAGGTCAAGGACAGTGAATCTCCGCACGC: 5.55

Proceed to the following item.
Query: Enter reported PBM binding z-score observed with PPARg:RXRa 90nM:30nM, anti-RXR (NR concentration 90 nM, RXRa partner concentration 30 nM) for CCTAGCTGGCCAGGGTCACTCAAGCATTTCGCTT
Result: -0.172

* * *

- Tested on: LXRa homodimer (NR concentration 270 nM)
- assayOverview: PBM binding z-score (relative to random genomic background probes); higher = stronger binding; sequences stand for … in GC…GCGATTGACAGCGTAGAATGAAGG
Record label 1 whenever PBM binding z-score is at 0.2 or higher; record label 0 when lower.

Known results for sequences:
ATCTCTAGGTAAAATTCAGTGAAAGATCGATAGA: label 1
CAAACTAGGTTACGAAAGGTCAAAGTCGAATGAC: label 1
CGAATTAGGTCAGAACAGGACAGTGAAGGATGAT: label 0
GGAACGAGGGCAAAGTTGATAGGATCTGTCGACG: label 0
TTACCAGGGTGAAAGGTCGTTGATGCACGCCTTG: label 1

Query: Decide: is the reported value of PBM binding z-score for ATACCAAGGTGATCGTGAGCTCGTTGATACTAAC equal to or greater than 0.2?
Result: label 0

Query: Decide: is the reported value of PBM binding z-score for TCGAGTAGGTTAGGGGCATTAAGAATGGCGTCGA equal to or greater than 0.2?
Result: label 0

Query: Decide: is the reported value of PBM binding z-score for TCTTGTCGATCAACAGGAGGTTAAGAAAGATCGA equal to or greater than 0.2?
Result: label 0

* * *

- Test system: RARg homodimer (NR concentration 270 nM)
- assayOverview: PBM binding z-score (relative to random genomic background probes); higher = stronger binding; sequences stand for … in GC…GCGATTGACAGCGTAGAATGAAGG
Record yes (1) whenever PBM binding z-score is at 0.9 or higher; record no (0) when lower.

Query: Decide: is the reported value of PBM binding z-score for TCTAGCAGGCCAGAAGGTCACTCAAGAGGTACGG equal to or greater than 0.9?
Result: yes (1)

* * *

- Tested on: PXR homodimer (NR concentration 270 nM)
- assayOverview: PBM binding z-score (relative to random genomic background probes); higher = stronger binding; sequences stand for … in GC…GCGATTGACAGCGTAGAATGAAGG
Record YES whenever PBM binding z-score is at 0.2 or higher; record NO when lower.

Known results for sequences:
ATATGTAGGTTAGCTGGGGTAATTCAGACTAGGC: NO
CGAACTAGGTCAAGGAAAGTGAATCTCCGCACGC: NO
CCTGCTAGGTCAATGGTCAACTAAAGCAGCTCGC: NO

Query: Decide: is the reported value of PBM binding z-score for CCTTACGGGTCACTCCAGGTTTTAGCATCGGAGT equal to or greater than 0.2?
Result: NO

Query: Decide: is the reported value of PBM binding z-score for CCTAGTTGGTGAAGGTCACACACGCTATAGGTAC equal to or greater than 0.2?
Result: YES
